measure: melting point

| chemical string | melting point |
| --- | --- |
| C=C(C)[C@@H]1CC[C@]2(C(=O)OCCOC(=O)c3ccncn3)CC[C@]3(C)[C@H](CC[C@@H]4[C@@]5(C)CCC(=O)C(C)(C)[C@@H]5CC[C@]43C)[C@@H]12 | 72 to 74 °C |
| C=C(C)[C@@H]1CC[C@]2(C(=O)OCCOC(=O)c3cncc(C)n3)CC[C@]3(C)[C@H](CC[C@@H]4[C@@]5(C)CCC(=O)C(C)(C)[C@@H]5CC[C@]43C)[C@@H]12 | 139 to 141 °C |
| C=C(C)[C@@H]1CC[C@]2(C(=O)OCCCOC(=O)c3cnccn3)CC[C@]3(C)[C@H](CC[C@@H]4[C@@]5(C)CCC(=O)C(C)(C)[C@@H]5CC[C@]43C)[C@@H]12 | 74 to 76 °C |

Ask: Indicate its recorded melting point; the molecule in question is `C=C(C)[C@@H]1CC[C@]2(C(=O)OCCOC(=O)c3nccnc3C)CC[C@]3(C)[C@H](CC[C@@H]4[C@@]5(C)CCC(=O)C(C)(C)[C@@H]5CC[C@]43C)[C@@H]12`
Result: 60 to 62 °C

Ask: Indicate its recorded melting point; the molecule in question is `C=C(C)[C@@H]1CC[C@]2(C(=O)OCCCOC(=O)c3cncc(C)n3)CC[C@]3(C)[C@H](CC[C@@H]4[C@@]5(C)CCC(=O)C(C)(C)[C@@H]5CC[C@]43C)[C@@H]12`
Result: 59 to 60 °C

Ask: Indicate its recorded melting point; the molecule in question is `C=C(C)[C@@H]1CC[C@]2(C(=O)OCCOC(=O)c3cnc(C)cn3)CC[C@]3(C)[C@H](CC[C@@H]4[C@@]5(C)CCC(=O)C(C)(C)[C@@H]5CC[C@]43C)[C@@H]12`
Result: 139 to 141 °C
